- Tested on: KM12
- ASSAY_OVERVIEW: NCI tumour cell line growth inhibition, 48 h
Active and inactive are the calls of the source. Rule as the data show it: active = GI50 up to about 1.1 µM and inactive = higher.
// allowed return values: active, inactive

COMPOUND	ASSIGNED_LABEL
CC1C[C@H](OC(N)=O)C(C)CC1=O (some centres not stated)	inactive
CC1=C(C(=O)Nc2ccc(Cl)c(C(=O)OC(C)C)c2)SCCO1	inactive
CC1CN=C(Nc2cccc(F)c2)S1 (configuration not stated)	inactive
CCOC(=O)/C=C(/C)Nc1nc2c(c(C(=O)OC)c1C#N)CCCC2	inactive
N#CI1OC(=O)c2ccccc21	inactive
CCOc1cc(NC(C)=O)ccc1C(=O)NN1C(=O)CSC1c1ccccc1 (configuration not stated)	inactive

Prompt: What did the test return for `Fc1ccc(/N=C/C=C/Nc2ccc(F)cc2)cc1` ?
Response: inactive

Prompt: What did the test return for COc1ccc(C2CCC(Cl)(OC)CC2C=O)cc1 (configuration not stated) ?
Response: inactive

Prompt: What did the test return for `Nc1cccc(-c2cc(O)c3cc4c(cc3n2)OCO4)c1` ?
Response: active

Prompt: What did the test return for `CN(C)c1ccc(/C=N/NC(=S)Nc2ccccc2)cc1` ?
Response: inactive

Prompt: What did the test return for `O=[N+]([O-])/C(Cl)=C(/C(Cl)=C(Cl)Cl)N1CCOCC1` ?
Response: inactive

Prompt: What did the test return for `Cc1cc(C)nc(NS(=O)(=O)c2ccc(Nc3c4ccccc4nc4c(C(=O)Nc5ccc(S(=O)(=O)N=C(N)N)cc5)ccc(Cl)c34)cc2)n1` ?
Response: inactive

Prompt: What did the test return for `CC(=O)CC(N)=O` ?
Response: inactive

Prompt: What did the test return for `O=C1/C(=C/c2ccccc2[N+](=O)[O-])N=C(c2ccccc2)N1c1nc2ccccc2s1` ?
Response: inactive

Prompt: What did the test return for `O=c1[nH]ncc2[nH]c3c(c12)CCc1ccccc1-3` ?
Response: inactive

Prompt: What did the test return for `Cc1c(-c2nc(N)nc(C3CC3)c2C)nc(N)nc1C1CC1` ?
Response: inactive

Prompt: What did the test return for CN1CCS(=O)(=O)NC(Cc2ccccc2)C(=O)N2CCCC2C1=O (configuration not stated) ?
Response: inactive

Prompt: What did the test return for COc1ccc(/C=C2\CN(C)CC3C2=NC(=S)NC3c2ccc(OC)cc2)cc1 (configuration not stated) ?
Response: inactive

Prompt: What did the test return for `O=C(c1ccccc1)c1ccc(OCCOc2ccc(Nc3ccccc3)cc2)cc1` ?
Response: inactive
